Consider the following compounds; for each one, report its inhibition.
Biological target: Protein kinase C theta type (Homo sapiens)
Settings: at 0.1 µM
Give the value, in units of %, as a plain number.

query: Request body: readout inhibition, system Protein kinase C theta type (Homo sapiens), query `NS(=O)(=O)c1ccc(Nc2cc(-c3cccc(O)c3)n[nH]2)cc1` . Return the value.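 Further: reported figure is the mean percent inhibition of PKC-theta, from the GSK PKIS screen.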
result: 3.09

query: # iterate: `COC(=O)Nc1nc2cc(Oc3ccc(NC(=O)Nc4cccc(Br)c4)cc3)ccc2[nH]1`
result: 1.7

query: # iterate: `COc1cccc(-n2ncc3c(N/N=C/c4ccc(S(C)(=O)=O)cc4)ncnc32)c1`
result: -0.11

query: # iterate: `Nc1nccc(-c2c(-c3ccc(F)cc3)ncn2CCCN2CCOCC2)n1`
result: 2.24

query: # iterate: `CCn1c(-c2nonc2N)nc2ccc(F)cc21`
result: 4.58

query: # iterate: `COc1cc2ncnc(Nc3ccc4c(cnn4Cc4ccccc4)c3)c2cc1OC`
result: 0.78

query: # iterate: `FC(F)(F)c1ccc(-c2nn3ncccc3c2-c2ccnc(Nc3ccc4c(c3)OCCO4)n2)cc1`
result: 2.52

query: # iterate: `CCn1c(-c2nonc2N)nc2c(C#CC(C)(C)O)nc(OCCNC)cc21`
result: 15.7

query: # iterate: `NC(=O)c1sc(-n2cnc3ccccc32)cc1OCc1ccccc1Br`
result: 1.86

query: # iterate: `COC(=O)c1ccc2c(c1)C(=Cc1cc(Br)c(O)c(Br)c1)C(=O)N2`
result: 1.25

---

Consider the following molecules; for each one, report its inhibition.
Biological target: Serine/threonine-protein kinase Nek9 (Homo sapiens)
Details: at 0.1 µM

query: Request body: readout inhibition, system Serine/threonine-protein kinase Nek9 (Homo sapiens), query `COC(=O)Nc1nc2cc(Oc3ccc(NC(=O)Nc4cccc(Br)c4)cc3)ccc2[nH]1` . Return the value.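 Further: reported value is the mean percent inhibition of NEK9.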
result: 7.82%

query: # iterate: `COC(=O)c1cncc(/C=C/c2c(C)cc(O)cc2C)c1`
result: 2.09%

query: # iterate: `COc1cc2ncn(-c3cc(OCc4ccccc4S(C)(=O)=O)c(C#N)s3)c2cc1OC`
result: 3.17%

query: # iterate: `CN1CCN(C(=O)c2ccc(NC(=O)Nc3ccc(N(C)c4ccnc(Nc5ccc(CS(C)(=O)=O)cc5)n4)cc3)cc2)CC1`
result: 6.54%

query: # iterate: `NS(=O)(=O)c1cccc(Nc2cc(-c3ccc(F)cc3)n[nH]2)c1`
result: 10.6%

query: # iterate: `Cc1ccc2c(-c3ccnc(Nc4cccc(C(F)(F)F)c4)n3)c(-c3ccccc3)nn2n1`
result: 8.93%

query: # iterate: `Cc1ccc2c(c1)/C(=N/Nc1ccc(S(N)(=O)=O)cc1)C(=O)N2`
result: 2%

query: # iterate: `CN(C)C(=O)O[C@H]1CN[C@H](C#Cc2cc3ncnc(Nc4ccc(OCc5cccc(F)c5)c(Cl)c4)c3s2)C1`
result: 7.4%

query: # iterate: `CN(C)c1cc2c(Nc3ccc4c(cnn4Cc4ccccc4)c3)ncnc2cn1`
result: 6.89%

---

System: Tyrosine-protein kinase ABL1 (Homo sapiens), P00519 [M351T]
Settings: at 1 µM
quantity_name: inhibition
Please append the unit to your numeric answer.

query: Using the record for `CN(C)c1cc2c(Nc3ccc4c(cnn4Cc4ccccc4)c3)ncnc2cn1` , report its inhibition.
result: 1.01%

query: # iterate: `COc1ccc2ncnc(Nc3ccc(OCc4ccccc4)cc3)c2c1`
result: 2.67%

query: # iterate: `[O-][S+]1CCN(Cc2ccc(-c3ccc4ncnc(Nc5ccc(OCc6ccccc6)c(Cl)c5)c4c3)o2)CC1`
result: 2.75%

query: # iterate: `N#Cc1c(NC(=O)c2ccccc2F)sc2c1CCCC2`
result: 0.57%
